- Test system: human fecal microflora
- protocolText: In vitro fermentation of fagopyritol-enriched buckwheat extract by human fecal microflora
- Format: in vitro ADME
- conditionParameters: Samples with human fecal inoculum, 0 hrs, 40° C., anaerobic
Binary classification by concentration of inositols and fagopyritols, with 50 µg/750 µL as an inclusive lower bound for TRUE; all other cases are FALSE.

Illustrative cases are given below, each with its answer.
OCC1O[C@H](OC2C(O)[C@H](O)C(O)C(O)[C@@H]2O)C(O)C(O)[C@H]1O (stereo partly drawn) [Fagopyritol B1]; TRUE
O[C@H]1[C@H](O)[C@@H](O)[C@H](O)[C@@H](O)[C@H]1O [myo-inositol]; FALSE
OC1C(O)C(O)C(O)C(O)C1O [D-chiro-inositol]; FALSE
OCC1O[C@H](OCC2O[C@H](OC3C(O)[C@H](O)C(O)C(O)[C@@H]3O)C(O)C(O)[C@H]2O)C(O)C(O)[C@H]1O (stereo partly drawn) [Fagopyritol B2]; TRUE
OCC1O[C@H](OCC2O[C@@H](O[C@H]3C(O)C(O)[C@H](O)C(O)C3O)C(O)C(O)[C@H]2O)C(O)C(O)[C@H]1O (stereo partly drawn) [Fagopyritol A2]; TRUE

Continue with the molecule presented below.
Query: State whether the measured concentration of inositols and fagopyritols reaches 50 µg/750 µL, counting equality as reaching it, for OCC1O[C@@H](O[C@H]2C(O)C(O)[C@H](O)C(O)C2O)C(O)C(O)[C@H]1O (stereo partly drawn) [Fagopyritol A1]
Response: TRUE
